# Assay Summary: Aqueous solubility at 37° C. (HPLC of filtered suspension)
# Format: physicochemical
# Conditions Used: phosphate buffer with 0.9% w/v sodium chloride, aqueous buffer, thermodynamic from solid; buffer (i) phosphate buffer, pH 3.5, 0.9% w/v sodium chloride; 37° C.; 24 hours; read-out: concentration of QTX125 (solubility)
Observation Type: solubility at 24 h (µg/mL)
Report as a plain number; the unit µg/mL is understood.

Prompt: Supply recorded solubility at 24 h for O=C(NO)c1ccc(CNC(=O)c2[nH]c(-c3ccc(O)cc3)cc2-c2ccoc2)cc1 [QTX125 Form 2] here.
Completion: 1.76

====

# Assay Summary: Aqueous solubility at 37° C. (HPLC of filtered suspension)
# Assay type: physicochemical
# Conditions Used: thermodynamic from solid; deionised water (buffer vi), 37° C., following 7 hours of incubation; read-out: peak solubility
Observation Type: solubility at 7 h (µg/mL)
Report as a plain number; the unit µg/mL is understood.

Prompt: Supply recorded solubility at 7 h for O=C(NO)c1ccc(CNC(=O)c2[nH]c(-c3ccc(O)cc3)cc2-c2ccoc2)cc1 [QTX125 Form 2] here.
Completion: 27.8
